Provenance of the data: the supplement of paper PMC10567573

B1: CLCN6 (parent)
chain: ILRSQLVTLLVRGVCYSESQSSAS

- Variants of: B1
- ASSAY: protein stability index of a GFP-peptide fusion (GPS, HEK-293T) (PSI 1-6); higher = more stable;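 further: lentivirally expressed fusions sorted by FACS into six bins by GFP to DsRed ratio, PSI derived from sequencing read proportions per bin multiplied by bin number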
- EXPERIMENTAL_CONTEXT: c terminus: a fixed tail appended
MEASURED_METRIC: protein stability index
// no unit, no text: just the number

Use the examples below as a reference point.
variant=S4T measured_metric="protein stability index" numeric_readout=2.68
variant=S4I measured_metric="protein stability index" numeric_readout=3.85
variant=L6G measured_metric="protein stability index" numeric_readout=2.86

## Task Requested field: protein stability index. Item: `S22Q`
## Result 3.86

## Task Here is the next variant: `C15D`
## Result 1.89

## Task What about this variant? `R3A`
## Result 2.34
